molecular target: recombinant human MMP-9 (Homo sapiens); test: biochemical; conditions: Inhibition Table B; read-out: MMP-9 IC50
Sequence (P14780 107-707 limits assumed): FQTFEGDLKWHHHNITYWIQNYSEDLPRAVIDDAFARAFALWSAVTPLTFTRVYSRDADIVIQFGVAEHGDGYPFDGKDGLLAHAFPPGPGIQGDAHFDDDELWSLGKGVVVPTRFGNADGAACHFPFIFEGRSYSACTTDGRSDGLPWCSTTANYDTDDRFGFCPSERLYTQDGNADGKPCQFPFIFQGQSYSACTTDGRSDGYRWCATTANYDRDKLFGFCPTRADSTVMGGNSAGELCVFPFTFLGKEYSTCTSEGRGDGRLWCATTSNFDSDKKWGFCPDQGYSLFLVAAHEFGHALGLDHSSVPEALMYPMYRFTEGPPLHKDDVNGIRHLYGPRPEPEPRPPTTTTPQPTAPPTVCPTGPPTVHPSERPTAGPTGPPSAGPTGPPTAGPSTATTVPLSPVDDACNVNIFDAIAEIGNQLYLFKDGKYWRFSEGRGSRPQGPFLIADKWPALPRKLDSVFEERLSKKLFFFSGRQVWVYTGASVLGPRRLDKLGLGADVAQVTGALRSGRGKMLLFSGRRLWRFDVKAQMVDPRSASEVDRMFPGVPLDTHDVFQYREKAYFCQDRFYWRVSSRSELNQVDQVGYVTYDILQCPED
Counter-ions that a name gives are not always drawn.
Readings of log10 IC50 for the listed compounds
// stored as log10 of IC50 expressed in nM

These recorded examples may help you get a feel for the data.
| COMPOUND | log10 IC50 |
| --- | --- |
| Cc1cc(Oc2ccc(S(=O)(=O)C3(C(=O)NO)CCNCC3)cc2)ccc1F [Example 83, Monohydrochloride] | 0.70 |
| O=C(NO)C1(S(=O)(=O)c2ccc(-c3ccc(Cl)cc3)cc2)CCNCC1 [Example 91, Monohydrochloride] | 1.60 |
| O=C(NO)C1(S(=O)(=O)c2ccc(Oc3ccccc3)cc2)CCSCC1 | -0.15 |
| O=C(NO)C1(S(=O)(=O)c2ccc(Sc3ccccc3)cc2)CCOCC1 | 0.56 |
| Cl.O=C(NO)C1(S(=O)(=O)c2ccc(Oc3ccc(Cl)cc3)cc2)CCNCC1 [Example 93, Monohydrochloride] | 0.54 |

// query Which log10 IC50 value belongs to Cl.O=C(NO)C1(S(=O)(=O)c2ccc(Sc3ccncc3)cc2)CCOCC1 [Example 104, Monohydrochloride] ?
// result 1.63

// query For the compound CC(=O)N1CCN(c2ccc(Oc3ccc(S(=O)(=O)C4(C(=O)NO)CCOCC4)cc3)cc2)CC1 [Example 123, Trifluoroacetic Acid Salt] , what log10 IC50 is on record?
// result 1.44

// query Look up log10 IC50 for this compound: O=C(NO)C1(S(=O)(=O)c2ccc(Sc3ccc(OC(F)(F)F)cc3)cc2)CCOCC1
// result -0.70

// query Consider the compound shown here: O=C(NO)C1(S(=O)(=O)c2ccc(Sc3ccc(O)cc3)cc2)CCSCC1 What is its recorded log10 IC50?
// result 1.50

// query Recorded log10 IC50 for C#CCN1CCC(C(=O)NO)(S(=O)(=O)c2ccc(Oc3ccc(OC)c(OC)c3)cc2)CC1 [Example 38, Monohydrochloride] , please?
// result 2.13

// query If you can, please state the reported log10 IC50 value of CC(=O)N1CCC(C(=O)NO)(S(=O)(=O)c2ccc(Sc3ccccc3)cc2)CC1.Cl [Example 36, Monohydrochloride] .
// result 0.90

// query Bench note: what log10 IC50 did O=C(NO)C1(S(=O)(=O)c2ccc(N3CCC(Oc4ccc5c(c4)OCO5)CC3)cc2)CCOCC1 [Example 63, Monohydrochloride] show?
// result 2.72

// query log10 IC50 lookup needed for C#CCN1CCC(C(=O)NO)(S(=O)(=O)c2ccc(Oc3ccc(Cl)cc3)cc2)CC1 [Example 85, Monohydrochloride] , thanks.
// result -0.40

// query Reported log10 IC50, compound NCCc1ccc(Oc2ccc(S(=O)(=O)C3(C(=O)NO)CCSCC3)cc2)cc1 : ____
// result 1.18

// query Could you tell me which log10 IC50 is on file for COCCN1CCC(C(=O)NO)(S(=O)(=O)c2ccc(Oc3ccccc3)cc2)CC1 ?
// result -0.52

// query Given Cc1cc(Oc2ccc(S(=O)(=O)C3(C(=O)NO)CCN(CC(=O)O)CC3)cc2)ccc1Cl [Example 80, Monohydrochloride] , state its recorded log10 IC50.
// result 0.26

// query Given the entry Cc1ccc(Oc2ccc(S(=O)(=O)C3(C(=O)NO)CCOCC3)cc2)cc1C , report its measured log10 IC50.
// result 0.11

// query What measured log10 IC50 goes with O=C(O)CN1CCC(C(=O)NO)(S(=O)(=O)c2ccc(Oc3ccc(Cl)cc3)cc2)CC1 [Example 88, Monohydrochloride] ?
// result -0.30

// query Fill in the blank: the reported log10 IC50 of O=C(O)CNc1ccc(Oc2ccc(S(=O)(=O)C3(C(=O)NO)CCSCC3)cc2)cc1 is ____.
// result 1.66
